Where do these numbers come from? They come from PubChem BioAssay (NCI).

Test system: HCT-15 colon
Assay: NCI-60 one-dose screen, 48 h (100 = growth as untreated, 0 = no growth, -100 = all killed)
Settings: 10 µM unless noted
About 83,000 compounds went through this panel and 20% of them were active in at least one assay; those are over-represented in the sample as a whole.
Observation type: growth (%)

| Compound | System under test | Observation type | Unit of measurement | Val |
| --- | --- | --- | --- | --- |
| Cc1ncc(C(=O)Nc2ccc(CN3CCN(C)CC3)c(C(F)(F)F)c2)cc1C#Cc1cnc(N)c2ncccc12 | HCT-15 colon | growth | % | 20 |
| CC/C(Cc1ccccc1)=C(\c1ccc(OCCCN(C)C)cc1)c1ccc(OC(=O)NCc2ccccc2)cc1 | HCT-15 colon | growth | % | 4.38 |
| CN(Cc1cc(Br)cc(Br)c1O)Cc1cc(Br)cc(Br)c1O | HCT-15 colon | growth | % | 22.2 |
| Cc1[nH]c(C2CC(c3ccc(C(F)(F)F)c(F)c3)=NN2c2ccccc2)c(C)c1C(=O)NCC(F)(F)F (configuration not stated) | HCT-15 colon | growth | % | 76.2 |
| Cc1nc2c(c(=O)[nH]1)C(c1ccccc1)c1ccc3ccccc3c1O2 (configuration not stated) | HCT-15 colon | growth | % | 23.4 |
| O=C1c2ccccc2C(=O)c2c1c(C(=O)NCc1ccccc1)c1ccccn21 | HCT-15 colon | growth | % | 114 |
| COc1ccc(C2=NN(C(C)=O)C(c3cn(-c4ccccc4)nc3-c3ccc(Cl)cc3)C2)cc1 (configuration not stated) | HCT-15 colon | growth | % | 17.1 |
| CC(=O)OC[C@]12CC[C@@H]([C@@H](C)c3nnc(-c4ccncc4)o3)[C@@H]1[C@H]1CC[C@@H]3[C@@]4(C)CC[C@H](OC(C)=O)C(C)(C)[C@@H]4CC[C@@]3(C)[C@]1(C)CC2 | HCT-15 colon | growth | % | 77.5 |
| CC(=O)c1ccc(Nc2nccc(-c3ccc4ccccc4c3)n2)cc1 | HCT-15 colon | growth | % | 85.7 |
| Cc1ccc(-c2csc(NC(=O)c3ccccc3CN3C(=O)c4ccccc4C3=O)n2)cc1 | HCT-15 colon | growth | % | 90.8 |
| C=C(C)[C@@H]1CCC[C@]2(C(=O)N3CCN(C)CC3)CC[C@]3(C)[C@@H](CC[C@@H]4[C@@]5(C)CC/C(=N\NC(=O)c6ccncc6)C(C)(C)[C@@H]5CC[C@]43C)[C@@H]12 | HCT-15 colon | growth | % | 92.1 |
| C=C1C(=O)O[C@H]2[C@H]1CC/C(COC(=O)NCc1ccc(Cn3c(=O)sn(-c4ccc(C#N)cc4)c3=O)cc1)=C\CC[C@@]1(C)O[C@@H]21 | HCT-15 colon | growth | % | 87.8 |
| CC1=C2[C@@H](CC1)[C@]1(C)O[C@@](c3ccccc3)(C[C@H]1OC(=O)CO)[C@H]2OC(=O)/C=C/c1ccccc1 | HCT-15 colon | growth | % | 92.6 |
| O=C1c2ccccc2C(=O)c2c1cc1c(c2[N+](=O)[O-])OCO1 | HCT-15 colon | growth | % | 13.7 |
| CC(=O)Oc1ccc(OC(C)=O)c2ccccc12 | HCT-15 colon | growth | % | 99.1 |
| COc1cc(/C=C/C(=O)c2ccc(-n3cc(CN4CCN(c5cc6c(cc5F)c(=O)c(C(=O)O)cn6C5CC5)CC4)nn3)cc2)ccc1O | HCT-15 colon | growth | % | 71.7 |
| Cc1nnc(-c2ccc3c(c2)nc(/C=C/c2ccccc2)n3C2CCCCC2)o1 | HCT-15 colon | growth | % | 49.4 |
